Let's look at some compounds and their measured TG.
- Organism: Rattus norvegicus
- assaySummary: Open TG-GATES - Regimen: Single
- Format: toxicity, organism-based, Sprague-Dawley
- Parameters: regimen Single, gender Male, age 6 weeks
- recordedConditions: in vivo, po, 0 mg/kg, 3 h, tissue Plasma, route gavage, dose level Control

Below, 3 compounds whose answers are already recorded.
Lookup: Which TG is reported for this compound? "CCO"
Found: 59.6 mg/dL

Lookup: Which TG is reported for this compound? NS(=O)(=O)c1cc(C(=O)O)c(NCc2ccco2)cc1Cl [FUROSEMIDE]
Found: 61.6 mg/dL

Lookup: Which TG is reported for this compound? "O=c1ccc2ccccc2o1"
Found: 99.4 mg/dL

Now for another entry.
Lookup: Which TG is reported for this compound? "COc1cc2ncnc(Nc3ccc(F)c(Cl)c3)c2cc1OCCCN1CCOCC1"
Found: 64.2 mg/dL

###

Let's look at some compounds and their measured MCHC.
- Species on record: Rattus norvegicus
- assaySummary: Open TG-GATES - Regimen: Single
- Format: toxicity, organism-based, Sprague-Dawley
- Set-up: regimen Single, gender Male, age 6 weeks
- recordedConditions: in vivo, po, 0 mg/kg, 6 h, tissue Blood, route gavage, dose level Control
Field format: number, assumed %, no unit text.

Below, 3 compounds whose answers are already recorded.
Lookup: Which MCHC is reported for this compound? "CCO"
Found: 33.5

Lookup: Which MCHC is reported for this compound? CC(S)C(=O)NCC(=O)O (configuration not stated)
Found: 32.8

Lookup: Which MCHC is reported for this compound? "CN(C)CCCN1c2ccccc2Sc2ccc(Cl)cc21"
Found: 34.5

Next:
Lookup: Which MCHC is reported for this compound? "COc1ccc([C@@H]2Sc3ccccc3N(CCN(C)C)C(=O)[C@@H]2OC(C)=O)cc1"
Found: 32.6

Lookup: Which MCHC is reported for this compound? "CC(=O)[C@@]1(O)CC[C@H]2[C@@H]3C=C(Cl)C4=CC(=O)CC[C@]4(C)[C@H]3CC[C@@]21C"
Found: 32.3

Lookup: Which MCHC is reported for this compound? CN(CCOc1ccc(CC2SC(=O)NC2=O)cc1)c1ccccn1.O=C(O)/C=C\C(=O)O (configuration not stated) [ROSIGLITAZONE MALEATE]
Found: 32.9

Lookup: Which MCHC is reported for this compound? "O=c1ccc2ccccc2o1"
Found: 33.4

###

- Species on record: Rattus norvegicus
- assaySummary: Open TG-GATES - Regimen: Daily Repeat
- Type: toxicity, organism-based, Sprague-Dawley
- Parameters: regimen Daily Repeat, gender Male, age 6 weeks
- recordedConditions: in vivo, po, 0 mg/kg, […], tissue Plasma, route gavage, dose level Control, time 14 day
assayMetric: Ca (mg/dL)
Field format: number, assumed mg/dL, no unit text.

Lookup: Which Ca is reported for this molecule? "Nc1ccc(Cc2ccc(N)cc2)cc1"
Found: 11

Lookup: Which Ca is reported for this molecule? CN(CCOc1ccc(CC2SC(=O)NC2=O)cc1)c1ccccn1.O=C(O)/C=C\C(=O)O (centres undefined) [ROSIGLITAZONE MALEATE]
Found: 11.1

Lookup: Which Ca is reported for this molecule? "CCCCC1C(=O)N(c2ccccc2)N(c2ccccc2)C1=O"
Found: 10.5

Now for another entry.
Lookup: Which Ca is reported for this molecule? "O=C(O)c1ccccc1Nc1ccccc1"
Found: 11.2

###

- Species on record: Rattus norvegicus
- assaySummary: Open TG-GATES - Regimen: Daily Repeat
- Assay type: toxicity, organism-based, Sprague-Dawley
- Set-up: regimen Daily Repeat, gender Male, age 6 weeks
- recordedConditions: in vivo, po, 0 mg/kg, 72 h, tissue Blood, route gavage, dose level Control, time 3 day
Let's look at some compounds and their measured MCH.
Field format: number, assumed pg, no unit text.

Lookup: Which MCH is reported for this compound? "O=c1ccc2ccccc2o1"
Found: 21.6

Lookup: Which MCH is reported for this compound? "CCO"
Found: 21.5

Now for another entry.
Lookup: Which MCH is reported for this compound? "CN(C/C=C/C#CC(C)(C)C)Cc1cccc2ccccc12"
Found: 21.5

###

- Organism: Rattus norvegicus
- assaySummary: Open TG-GATES - Regimen: Single
- Format: toxicity, organism-based, Sprague-Dawley
- Design: regimen Single, gender Male, age 6 weeks
- recordedConditions: in vivo, po, 0 mg/kg, 3 h, tissue Plasma, route gavage, dose level Control
Let's look at some molecules and their measured GLC.
Field format: number, assumed mg/dL, no unit text.

Lookup: Which GLC is reported for this molecule? "COc1ccc([C@@H]2Sc3ccccc3N(CCN(C)C)C(=O)[C@@H]2OC(C)=O)cc1"
Found: 178.4

Lookup: Which GLC is reported for this molecule? "CC(=O)[C@@]1(O)CC[C@H]2[C@@H]3C=C(Cl)C4=CC(=O)CC[C@]4(C)[C@H]3CC[C@@]21C"
Found: 180

Lookup: Which GLC is reported for this molecule? "O=C(O)c1ccccc1Nc1ccccc1"
Found: 185.4

Lookup: Which GLC is reported for this molecule? "CN(C/C=C/C#CC(C)(C)C)Cc1cccc2ccccc12"
Found: 202.2

Next:
Lookup: Which GLC is reported for this molecule? CN(CCOc1ccc(CC2SC(=O)NC2=O)cc1)c1ccccn1.O=C(O)/C=C\C(=O)O (stereo not given) [ROSIGLITAZONE MALEATE]
Found: 195.6

###

Let's look at some molecules and their measured TBIL.
- Organism: Rattus norvegicus
- assaySummary: Open TG-GATES - Regimen: Daily Repeat
- Format: toxicity, organism-based, Sprague-Dawley
- Set-up: regimen Daily Repeat, gender Male, age 6 weeks
- recordedConditions: in vivo, po, 0 mg/kg, […], tissue Plasma, route gavage, dose level Control, time 14 day
Field format: number, assumed mg/dL, no unit text.

Below, 6 molecules whose answers are already recorded.
Lookup: Which TBIL is reported for this molecule? "COc1ccc([C@@H]2Sc3ccccc3N(CCN(C)C)C(=O)[C@@H]2OC(C)=O)cc1"
Found: 0.02

Lookup: Which TBIL is reported for this molecule? "CN(C/C=C/C#CC(C)(C)C)Cc1cccc2ccccc12"
Found: 0.2

Lookup: Which TBIL is reported for this molecule? CCCCNC(=O)NS(=O)(=O)c1ccc(C)cc1 [TOLBUTAMIDE]
Found: 0.056

Lookup: Which TBIL is reported for this molecule? "CC(=O)[C@@]1(O)CC[C@H]2[C@@H]3C=C(Cl)C4=CC(=O)CC[C@]4(C)[C@H]3CC[C@@]21C"
Found: 0.016

Lookup: Which TBIL is reported for this molecule? CN(CCOc1ccc(CC2SC(=O)NC2=O)cc1)c1ccccn1.O=C(O)/C=C\C(=O)O (configuration not stated) [ROSIGLITAZONE MALEATE]
Found: 0.036

Lookup: Which TBIL is reported for this molecule? CC(S)C(=O)NCC(=O)O (configuration not stated)
Found: 0.006

Next:
Lookup: Which TBIL is reported for this molecule? NS(=O)(=O)c1cc(C(=O)O)c(NCc2ccco2)cc1Cl [FUROSEMIDE]
Found: 0.046

###

- Organism: Rattus norvegicus
- assaySummary: Open TG-GATES - Regimen: Daily Repeat
- Format: toxicity, organism-based, Sprague-Dawley
- Design: regimen Daily Repeat, gender Male, age 6 weeks
- recordedConditions: in vivo, po, 0 mg/kg, […], tissue Plasma, route gavage, dose level Control, time 28 day
Let's look at some molecules and their measured PL.
Field format: number, assumed mg/dL, no unit text.

Below, 3 molecules whose answers are already recorded.
Lookup: Which PL is reported for this molecule? NS(=O)(=O)c1cc(C(=O)O)c(NCc2ccco2)cc1Cl [FUROSEMIDE]
Found: 137.2

Lookup: Which PL is reported for this molecule? CN(C/C=C/C#CC(C)(C)C)Cc1cccc2ccccc12 [TERBINAFINE]
Found: 129.2

Lookup: Which PL is reported for this molecule? CC(=O)[C@@]1(O)CC[C@H]2[C@@H]3C=C(Cl)C4=CC(=O)CC[C@]4(C)[C@H]3CC[C@@]21C [CHLORMADINONE]
Found: 131

Now for another entry.
Lookup: Which PL is reported for this molecule? O=c1ccc2ccccc2o1 [COUMARIN]
Found: 137.4

###

Let's look at some compounds and their measured PT.
- Organism: Rattus norvegicus
- assaySummary: Open TG-GATES - Regimen: Daily Repeat
- Type: toxicity, organism-based, Sprague-Dawley
- Set-up: regimen Daily Repeat, gender Male, age 6 weeks
- recordedConditions: in vivo, po, 0 mg/kg, 72 h, tissue Blood, route gavage, dose level Control, time 3 day
Field format: number, assumed s, no unit text.

Lookup: Which PT is reported for this compound? "CCN(CC)C(=S)SSC(=S)N(CC)CC"
Found: 16.3

Next:
Lookup: Which PT is reported for this compound? "O=C(O)c1ccccc1Nc1ccccc1"
Found: 14.3

Lookup: Which PT is reported for this compound? CCCCNC(=O)NS(=O)(=O)c1ccc(C)cc1 [TOLBUTAMIDE]
Found: 13
